Reference for the values: the supplement of paper PMC12669032

- Tested on: Bacteroides dorei
- measurement-protocol: growth AUC relative to DMSO control (median of replicates) (fraction); higher = more growth (less inhibition), active = hit call of the paper
- experimental-setup: 20 µM; 24 h
Assign class by growth AUC: not lower than 1 means true; lower than 1 means false.

INPUT: Tell me whether growth AUC is at least 1 here: O=C(NC(=O)c1ccccc1Cl)Nc1ccc(OC(F)(F)F)cc1
OUTPUT: false

INPUT: Tell me whether growth AUC is at least 1 here: CC#Cc1cc(C)nc(Nc2ccccc2)n1
OUTPUT: false

INPUT: Tell me whether growth AUC is at least 1 here: N#Cc1cc(Br)c(O)c(Br)c1
OUTPUT: false

INPUT: Tell me whether growth AUC is at least 1 here: S=C1NCCN1
OUTPUT: true

INPUT: Tell me whether growth AUC is at least 1 here: O=P(OC(CCl)CCl)(OC(CCl)CCl)OC(CCl)CCl
OUTPUT: false

INPUT: Tell me whether growth AUC is at least 1 here: C#CCN1CC(=O)N(COC(=O)C2C(C=C(C)C)C2(C)C)C1=O (mixture of isomers)
OUTPUT: false

* * *

- Tested on: Eubacterium rectale
- measurement-protocol: growth AUC relative to DMSO control (median of replicates) (fraction); higher = more growth (less inhibition), active = hit call of the paper;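 active = AUC reduced over 20% with Padj below 0.05 in at least 2 of 3 replicates; inactive = otherwise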
- experimental-setup: 20 µM; 24 h
Field 'call' accepts active, inactive

INPUT: Please state the recorded outcome for this compound: Clc1ccc(C(c2ccc(Cl)cc2)C(Cl)(Cl)Cl)cc1
OUTPUT: inactive

INPUT: Please state the recorded outcome for this compound: Cc1cc(Cl)ccc1OCC(=O)O
OUTPUT: inactive

INPUT: Please state the recorded outcome for this compound: O=C(O)c1ccccc1C(=O)Nc1cccc2ccccc12
OUTPUT: inactive

INPUT: Please state the recorded outcome for this compound: COCC(C)N(C(=O)CCl)c1c(C)csc1C (centres undefined)
OUTPUT: inactive

INPUT: Please state the recorded outcome for this compound: O=C(O)C(F)(F)C(F)(F)C(F)(F)C(F)(F)C(F)(F)C(F)(F)C(F)(F)C(F)(F)F
OUTPUT: inactive

INPUT: Please state the recorded outcome for this compound: Oc1c(Cl)ccc(Cl)c1Cl
OUTPUT: inactive

INPUT: Please state the recorded outcome for this compound: Clc1ccccc1-c1nnc(-c2ccccc2Cl)nn1
OUTPUT: inactive

INPUT: Please state the recorded outcome for this compound: CNC(=O)O/N=C(\SC)C(=O)N(C)C
OUTPUT: inactive

INPUT: Please state the recorded outcome for this compound: Oc1ccc(C(c2ccc(O)cc2)(C(F)(F)F)C(F)(F)F)cc1
OUTPUT: active

INPUT: Please state the recorded outcome for this compound: CCCSP(=O)(OCC)Oc1ccc(Br)cc1Cl (centres undefined)
OUTPUT: inactive

INPUT: Please state the recorded outcome for this compound: CNC(=O)Oc1ccccc1C(C)C
OUTPUT: inactive

INPUT: Please state the recorded outcome for this compound: CCN(Cc1ccc(Cl)nc1)/C(=C/[N+](=O)[O-])NC
OUTPUT: inactive

INPUT: Please state the recorded outcome for this compound: CC(C)(O)C(Cl)(Cl)Cl.CC(C)(O)C(Cl)(Cl)Cl.O
OUTPUT: inactive

INPUT: Please state the recorded outcome for this compound: Oc1cc(Cl)c(Cl)cc1Cl
OUTPUT: inactive

INPUT: Please state the recorded outcome for this compound: Nc1ccc(Cl)cc1
OUTPUT: inactive

INPUT: Please state the recorded outcome for this compound: Clc1cc(Cl)nc(-c2ccccc2)n1
OUTPUT: inactive

INPUT: Please state the recorded outcome for this compound: CS(=O)(=O)NC(=O)c1cc(Oc2ccc(C(F)(F)F)cc2Cl)ccc1[N+](=O)[O-]
OUTPUT: inactive

INPUT: Please state the recorded outcome for this compound: CNC(=O)Oc1cc(C)cc(C(C)C)c1
OUTPUT: inactive

INPUT: Please state the recorded outcome for this compound: Clc1ccc(Cl)c(Cl)c1Cl
OUTPUT: inactive

INPUT: Please state the recorded outcome for this compound: Nc1cc(Cl)cc(Cl)c1
OUTPUT: inactive

INPUT: Please state the recorded outcome for this compound: CNC(=O)c1cc(Cl)cc(C)c1NC(=O)c1cc(Br)nn1-c1ncccc1Cl
OUTPUT: inactive

INPUT: Please state the recorded outcome for this compound: Cc1cc(C(F)(C(F)(F)F)C(F)(F)F)ccc1NC(=O)c1cccc(I)c1C(=O)NC(C)(C)CS(C)(=O)=O
OUTPUT: inactive

INPUT: Please state the recorded outcome for this compound: CCCCc1c(C)nc(NCC)nc1OS(=O)(=O)N(C)C
OUTPUT: inactive

INPUT: Please state the recorded outcome for this compound: COc1cc(C)c(C(=O)c2c(OC)ccc(Br)c2C)c(OC)c1OC
OUTPUT: inactive

* * *

- Tested on: Escherichia coli IAI1
- measurement-protocol: growth AUC relative to DMSO control (median of replicates) (fraction); higher = more growth (less inhibition), active = hit call of the paper
- experimental-setup: 20 µM; 24 h
reported-property: growth AUC
Field format: numeric only.

INPUT: Sample OC(c1ccc(F)cc1)(c1cncnc1)c1ccccc1Cl (configuration not stated) — what was its growth AUC?
OUTPUT: 1.01

INPUT: Sample N#Cc1cc(I)c(O)c(I)c1 — what was its growth AUC?
OUTPUT: 0.764

INPUT: Sample Cc1occc1C(=O)Nc1ccccc1 — what was its growth AUC?
OUTPUT: 0.953

INPUT: Sample Nc1nc(N)[nH]c(=O)n1 — what was its growth AUC?
OUTPUT: 1.03

INPUT: Sample COC(=O)C(C)Oc1ccc(Oc2ccc(Cl)cc2Cl)cc1 (configuration not stated) — what was its growth AUC?
OUTPUT: 0.993

INPUT: Sample CCOC(=O)N(C)C(=O)CSP(=S)(OCC)OCC — what was its growth AUC?
OUTPUT: 0.987

INPUT: Sample CC1(C)[C@H](C=C(Cl)Cl)[C@H]1C(=O)OCc1c(F)c(F)cc(F)c1F — what was its growth AUC?
OUTPUT: 1.03

INPUT: Sample C#CCN1C(=O)COc2cc(F)c(N3C(=O)C4=C(CCCC4)C3=O)cc21 — what was its growth AUC?
OUTPUT: 0.984

INPUT: Sample CCCN(CCC)c1c([N+](=O)[O-])cc(C(C)C)cc1[N+](=O)[O-] — what was its growth AUC?
OUTPUT: 0.996

INPUT: Sample CCS(=O)(=O)c1cccnc1S(=O)(=O)NC(=O)Nc1nc(OC)cc(OC)n1 — what was its growth AUC?
OUTPUT: 0.999

INPUT: Sample O=[N+]([O-])/N=C1\NCCN1Cc1ccc(Cl)nc1 — what was its growth AUC?
OUTPUT: 1

INPUT: Sample Cc1cc(Cl)ccc1OC(C)C(=O)O (configuration not stated) — what was its growth AUC?
OUTPUT: 1.02

INPUT: Sample CNC(=O)Oc1cccc(N=CN(C)C)c1.Cl — what was its growth AUC?
OUTPUT: 1.05

INPUT: Sample ClCC(Br)CBr (configuration not stated) — what was its growth AUC?
OUTPUT: 0.996

INPUT: Sample CCCOP(=S)(OCCC)SCC(=O)N1CCCCC1C (configuration not stated) — what was its growth AUC?
OUTPUT: 1

INPUT: Sample CCOC1Oc2ccc(OS(C)(=O)=O)cc2C1(C)C (configuration not stated) — what was its growth AUC?
OUTPUT: 0.964

INPUT: Sample CNC(=S)S — what was its growth AUC?
OUTPUT: 1.02

INPUT: Sample Cc1c(F)c(F)c(COC(=O)[C@@H]2[C@H](/C=C(\Cl)C(F)(F)F)C2(C)C)c(F)c1F (mixture of isomers) — what was its growth AUC?
OUTPUT: 0.993

INPUT: Sample CNC(=O)Oc1cccc2c1OC(C)(C)C2O (configuration not stated) — what was its growth AUC?
OUTPUT: 1.01

INPUT: Sample O=c1oc2ccccc2c(O)c1C1CC(c2ccc(OCc3ccc(C(F)(F)F)cc3)cc2)Cc2ccccc21 (mixture of isomers) — what was its growth AUC?
OUTPUT: 1.04

INPUT: Sample CCC(C)c1ccccc1OC(=O)NC (configuration not stated) — what was its growth AUC?
OUTPUT: 0.974

INPUT: Sample CC(Cc1ccc(C(C)(C)C)cc1)CN1CCCCC1 (configuration not stated) — what was its growth AUC?
OUTPUT: 0.932

INPUT: Sample CC(C)=CC1C(C(=O)OCc2coc(Cc3ccccc3)c2)C1(C)C (configuration not stated) — what was its growth AUC?
OUTPUT: 1.01

INPUT: Sample Clc1ccccc1-c1nnc(-c2ccccc2Cl)nn1 — what was its growth AUC?
OUTPUT: 0.978

INPUT: Sample CCOC(=O)/C=C(C)/C=C/C[C@@H](C)CCCC(C)C — what was its growth AUC?
OUTPUT: 0.997

INPUT: Sample CC(Oc1ccc(Oc2ncc(C(F)(F)F)cc2Cl)cc1)C(=O)O (configuration not stated) — what was its growth AUC?
OUTPUT: 0.987

INPUT: Sample O=P(O)(O)CCCl — what was its growth AUC?
OUTPUT: 1.02

INPUT: Sample CCOC(=O)CC(SP(=O)(OC)OC)C(=O)OCC (configuration not stated) — what was its growth AUC?
OUTPUT: 0.976

INPUT: Sample O=C(O)C(F)(F)C(F)(F)C(F)(F)C(F)(F)C(F)(F)C(F)(F)C(F)(F)F — what was its growth AUC?
OUTPUT: 0.998

INPUT: Sample CC(Oc1cc(Cl)c(Cl)cc1Cl)C(=O)O (configuration not stated) — what was its growth AUC?
OUTPUT: 0.953

INPUT: Sample CC(CCl)OP(=O)(OC(C)CCl)OC(C)CCl (mixture of isomers) — what was its growth AUC?
OUTPUT: 0.984

INPUT: Sample CC(C)(C)C(O)(CCc1ccc(Cl)cc1)Cn1cncn1 (configuration not stated) — what was its growth AUC?
OUTPUT: 0.991

INPUT: Sample CP(=O)(O)CCC(N)C(=O)[O-].[NH4+] (configuration not stated) — what was its growth AUC?
OUTPUT: 1.02

INPUT: Sample Clc1nc(Cl)nc(Nc2ccccc2Cl)n1 — what was its growth AUC?
OUTPUT: 0.998

INPUT: Sample CCCCC(CC)COC(=O)c1ccccc1C(=O)OCC(CC)CCCC (configuration not stated) — what was its growth AUC?
OUTPUT: 0.977

INPUT: Sample COP(=S)(OC)Oc1ccc(S(N)(=O)=O)cc1 — what was its growth AUC?
OUTPUT: 0.999

INPUT: Sample Nc1nc(N)nc(NC2CC2)n1 — what was its growth AUC?
OUTPUT: 0.986

INPUT: Sample COP(=S)(OC)Oc1cc(Cl)c(Br)cc1Cl — what was its growth AUC?
OUTPUT: 0.965

INPUT: Sample O=C1C=C(N(Cc2ccc(Cl)nc2)CC(F)F)CO1 — what was its growth AUC?
OUTPUT: 0.994

INPUT: Sample COC(=O)C(Cl)Cl — what was its growth AUC?
OUTPUT: 0.989

INPUT: Sample CC(C)OC(=O)C(O)(c1ccc(Br)cc1)c1ccc(Br)cc1 — what was its growth AUC?
OUTPUT: 1.01

INPUT: Sample COCC(=O)N(c1c(C)cccc1C)[C@H](C)C(=O)OC — what was its growth AUC?
OUTPUT: 1.05

INPUT: Sample CC(C)[C@H](C(=O)O[C@H](C#N)c1cccc(Oc2ccccc2)c1)c1ccc(Cl)cc1 — what was its growth AUC?
OUTPUT: 0.959

INPUT: Sample C=CCC1=C(C)C(OC(=O)[C@@H]2[C@@H](C=C(C)C)C2(C)C)CC1=O (some centres not stated) — what was its growth AUC?
OUTPUT: 0.988

INPUT: Sample O=[N+]([O-])c1ccc(O)c([N+](=O)[O-])c1 — what was its growth AUC?
OUTPUT: 0.998

INPUT: Sample CCN(CC)N=O — what was its growth AUC?
OUTPUT: 1.04

INPUT: Sample O=C1OCC2C1C1(Cl)C(Cl)=C(Cl)C2(Cl)C1(Cl)Cl (configuration not stated) — what was its growth AUC?
OUTPUT: 1.01
